The origin of these recorded values is paper PMC12197660.

# method: GS-441524 plasma PK across species
# assay-setup: BALB/c (mouse), Sprague Dawley (rat), beagle (dog), plasma, po
endpoint-label: half-life

1. N#C[C@@]1(c2ccc3c(N)ncnn23)O[C@H](CO)[C@@H](O)[C@H]1O :: 1.4 to 4.2 h

* * *

# method: Plasma stability, human plasma
# Assay type: in vitro ADME
# assay-setup: human, plasma
endpoint-label: half-life at 2 µM (h)

1) CCC(CC)COC(=O)[C@H](C)N[P@](=O)(OC[C@H]1O[C@@](C#N)(c2ccc3c(N)ncnn23)[C@H](O)[C@@H]1O)Oc1ccccc1 [RDV, remdesivir, reference compound] :: 1.3
